Numbers sourced from BindingDB's records for doi:10.1021/jm00124a027.

assay: Inhibition of thromboxane A2 synthetase as reduced ADP-induced aggregation of human platelet rich plasma in the presence of pig aortal microsomes
pIC50: −log10 of the molar value.
// thresholds for pIC50 classes: bottom end (below 5), midrange (5 to below 6), top end (6 or more)

smilesNotation | class
C/C(=C/c1cc(Cc2cccnc2)n(C(C)(C)C)c1)C(=O)O | top end

query: Class? Entry: C/C(=C/c1ccc(Cc2cccnc2)n1C)C(=O)O
result: top end

query: Which bin, given its pIC50, does CCn1c(/C=C(/C)C(=O)O)ccc1Cc1cccnc1 occupy?
result: top end

query: Field: class (pIC50) — entry: Cn1cc(/C=C/C(=O)O)cc1Cn1ccnc1
result: midrange

query: Please let me know in which category the item C/C(=C/c1ccc(Cc2cccnc2)n1-c1ccccc1)C(=O)O belongs.
result: bottom end

query: Which pIC50 band matches C/C(=C/c1ccc(Cc2cccnc2)n1CC(C)(C)C)C(=O)O ?
result: bottom end

query: Band for Cn1c(/C=C/C(=O)O)ccc1Cn1ccnc1 ?
result: midrange

query: Given C/C(=C\c1cc(Cn2ccnc2)n(C)c1)C(=O)O , name the class its pIC50 places it in.
result: midrange

query: Assign a bin to C/C(=C/c1ccc(Cc2cccnc2)n1C(C)C)C(=O)O
result: midrange

----------
experiment: Inhibition of thromboxane A2 synthetase as reduced ADP-induced aggregation of human platelet rich plasma in the presence of pig aortal microsomes
Overview of reported pIC50 across a group of compounds:
Reminder that pIC50 is minus the log10 of a molar concentration.

Below, each entry is followed by its recorded pIC50 result.
compound | pIC50
COC(=O)[C@@H]1CC1c1ccc(Cn2ccnc2)n1C (stereo partly drawn) | 5.04
C/C(=C\c1ccc(Cn2ccnc2)[nH]1)C(=O)O | 5.04

// below: pIC50 requested for another compound
query: Tell me measured pIC50 for C/C(=C/c1ccc(Cn2ccnc2)n1C)C(=O)O please.
result: 6.00
